# Tested on: BLIS M18 and K12
# experiment_description: Comparison of foaming agents: inhibition on agar plates
# Type: cell-based, Streptococcus salivarius
# stated_conditions: 10 μL spotted on CABK12 and BaCa agar plates, 37° C. 5% CO2, 24 hrs
assay_readout: Inhibitory to BLIS M18 and K12

CCCCCCCCCCO[C@@H]1O[C@H](CO)[C@@H](O)[C@H](O)[C@H]1O [Decyl Glucoside] :: Yes
CCCCCCCCO[C@@H]1O[C@H](CO)[C@@H](O)[C@H](O)[C@H]1O [Caprylyl glucoside] :: Yes
CCCCCCCC/C=C\CCCCCCCC(=O)OCCOCC(OCCO)C1OCC(OCCO)C1OCCO (stereo not shown) [Polysorbate 80] :: No
CCCCCCCCCCCCOS(=O)(=O)[O-].[Na+] [Sodium Lauryl Sulphate] :: Yes

// provenance: patent US20240115629A1
